Test system: cancer cell lines from the cancer cell line encyclopedia (CCLE)
ASSAY: Cell line profiling (CLiP) proliferation experiment
Assay type: cell-based
APPLIED CONDITIONS: KMRC-20 cells; read-out: Crossing Point
pIC50: −log10 of the molar value.
OUTCOME MEASURE: pIC50

// query Returns the measured pIC50 for the input compound. Input: CC(C)[C@@]12C[C@@H](O)[C@@](C)(O1)[C@@H]1CC[C@@H](C)[C@H]1[C@@H]2OC(=O)/C=C/c1ccccc1 [Englerin B]
// result < 4.52

---

Tested on: cancer cell lines from the cancer cell line encyclopedia (CCLE)
ASSAY: Cell line profiling (CLiP) proliferation experiment
Assay type: cell-based
APPLIED CONDITIONS: Homo sapiens, DLD-1, DLD-1, large_intestine, adenocarcinoma; read-out: Crossing Point
OUTCOME MEASURE: pIC50
Scale note: pIC50 = -log10(concentration in M).

// query What is its pIC50 for cancer cell lines from the cancer cell line encyclopedia (CCLE)? Entry: `CC(C)[C@@]12C[C@@H](O)[C@@](C)(O1)[C@@H]1CC[C@@H](C)[C@H]1[C@@H]2OC(=O)/C=C/c1ccccc1`
// result 4.66
